// values below are reported IC50
Target: GIPR (CHO-K1-hGIPR cells) (Homo sapiens, UniProt P48546)
Construct: host or cells: CHO-K1
Sequence (P48546 22-466): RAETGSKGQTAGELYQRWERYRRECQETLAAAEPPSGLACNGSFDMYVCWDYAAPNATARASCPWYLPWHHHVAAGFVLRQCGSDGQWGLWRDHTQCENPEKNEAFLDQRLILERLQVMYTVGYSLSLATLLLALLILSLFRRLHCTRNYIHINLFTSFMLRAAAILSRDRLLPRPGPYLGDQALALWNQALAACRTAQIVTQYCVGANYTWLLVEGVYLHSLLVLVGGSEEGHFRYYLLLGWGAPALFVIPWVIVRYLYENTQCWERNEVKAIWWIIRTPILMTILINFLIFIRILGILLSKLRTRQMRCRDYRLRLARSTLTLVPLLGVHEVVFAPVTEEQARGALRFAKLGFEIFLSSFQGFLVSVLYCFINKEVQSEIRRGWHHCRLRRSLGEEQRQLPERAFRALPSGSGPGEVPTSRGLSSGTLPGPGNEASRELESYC
Experiment: FACS binding assay
Conditions: competition with 20 nM GIP-057, 4° C., 1 hour, read-out: pIC50 Category (converted)
*1 amine or outer side, *2 acyl side, *3 side chain or, on linkers, in order; H or OH if unused. Where a SMILES comes first, the peptide text is derived from it. Bridges are numbered along the chain shown (N, C = ends). [ ]: non-standard residue; d: D form. The star is where a group is joined. DOTA(In) = O=C1CN2CCN3CCN(CC(=O)*)CCN(CC2)CC(=O)[O][In]([O]1)[O]C(=O)C3; Trp(5-Cl) = N[C@@H](Cc1c[nH]c2ccc(Cl)cc12)C(=O)O; Pyridine(2,6-diCH2) = c1cc(C[*:1])nc(C[*:2])c1; Phe(4-Cl) = N[C@@H](Cc1ccc(Cl)cc1)C(=O)O; Pro(4R-NH2) = N[C@H]1CN[C@H](C(=O)O)C1; Ser(ΨH,HPro) = O=C(O)[C@@H]1COCN1; X6 = c1cc(CSCCN[*:2])nc(C[*:1])c1; Hyp = O=C(O)[C@@H]1C[C@@H](O)CN1; X1 = O=C(CN1CCC(N[*:1])CC1)[*:2]; Thp = NC1(C(=O)O)CCOCC1

Compound	Quantity measured	Assay result
CC[C@H](C)[C@@H]1NC(=O)[C@H](CC(C)C)NC(=O)C2(CCOCC2)NC(=O)[C@@H](NC(=O)[C@@H](CC(C)C)NC(=O)[C@H](CCC(=O)O)NC(=O)[C@@H]2C[C@@H](O)CN2C(=O)[C@H](Cc2c[nH]c3ccc(Cl)cc23)NC(=O)[C@H](Cc2ccc(Cl)cc2)NC(=O)[C@H](CC(=O)O)NC(C)=O)CSCc2cccc(n2)CSC[C@@H](C(N)=O)NC1=O [GIP-210] (Ac-D[Phe(4-Cl)][Trp(5-Cl)][Hyp]E[dL]C[Thp]LIC-NH2; linker 7-11 via Pyridine(2,6-diCH2))	IC50	< 10 nM

Name the recorded IC50 for CC[C@H](C)[C@@H]1NC(=O)[C@H](CC(C)C)NC(=O)C2(CCOCC2)NC(=O)[C@@H](NC(=O)[C@@H](CC(C)C)NC(=O)[C@H](CCC(=O)O)NC(=O)[C@@H]2COCN2C(=O)[C@H](Cc2c[nH]c3ccc(Cl)cc23)NC(=O)[C@H](Cc2c[nH]c3ccccc23)NC(=O)[C@H](CC(=O)O)NC(C)=O)CSCc2cccc(n2)CSC[C@@H](C(N)=O)NC1=O [GIP-216] (Ac-DW[Trp(5-Cl)][Ser(ΨH,HPro)]E[dL]C[Thp]LIC-NH2; linker 7-11 via Pyridine(2,6-diCH2)) . < 10 nM

Next: CC[C@H](C)[C@@H]1NC(=O)[C@H](CC(C)C)NC(=O)C2(CCOCC2)NC(=O)[C@@H](NC(=O)[C@@H](CC(C)C)NC(=O)[C@H](CCC(=O)O)NC(=O)[C@@H]2C[C@@H](O)CN2C(=O)[C@H](Cc2c[nH]c3ccc(Cl)cc23)NC(=O)[C@H](Cc2c[nH]c3ccccc23)NC(=O)[C@H](CC(=O)O)NC(=O)CN2CCC(NC(=O)CN3CCN4CCN5CCN(CC3)CC(=O)[O][In]([O]C(=O)C4)[O]C(=O)C5)CC2)CSCc2cccc(n2)CSCCNC1=O [GIP-155] ({DOTA(In)}-[X1]DW[Trp(5-Cl)][Hyp]E[dL]C[Thp]LI; linker 8-C via X6) < 10 nM

Same again, this time with CC[C@H](C)[C@@H]1NC(=O)[C@H](CC(C)C)NC(=O)C2(CCOCC2)NC(=O)[C@@H](NC(=O)[C@@H](CC(C)C)NC(=O)[C@H](CCC(=O)O)NC(=O)[C@@H]2C[C@@H](N)CN2C(=O)[C@H](Cc2c[nH]c3ccc(Cl)cc23)NC(=O)[C@H](Cc2c[nH]c3ccccc23)NC(=O)[C@H](CC(=O)O)NC(C)=O)CSCc2cccc(n2)CSC[C@@H](C(N)=O)NC1=O [GIP-239] (Ac-DW[Trp(5-Cl)][Pro(4R-NH2)]E[dL]C[Thp]LIC-NH2; linker 7-11 via Pyridine(2,6-diCH2)) < 10 nM
